Value source: paper PMC10397247

Biological target: T1, 4H3130-AA
T1 chain: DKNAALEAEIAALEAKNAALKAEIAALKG
Test: two-hybrid library CCmax;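 further: natural log of median RNA to DNA barcode read ratio; higher means stronger binding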
Conditions: mean of both orientations
EXPERIMENTAL_ENDPOINT: interaction score
In your answer, state the number alone without any accompanying words.

Input line: Reported interaction score for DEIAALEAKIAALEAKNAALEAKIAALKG [4H310-AA] : what is it?
Output line: -0.0638

Input line: Reported interaction score for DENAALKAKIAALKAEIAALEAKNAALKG [4H1864-AA] : what is it?
Output line: -0.716

Input line: Reported interaction score for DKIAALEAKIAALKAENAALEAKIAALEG [4H2389-AA] : what is it?
Output line: 1.81

Input line: Reported interaction score for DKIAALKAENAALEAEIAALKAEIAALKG [4H2698-AA] : what is it?
Output line: 1.19

Input line: Reported interaction score for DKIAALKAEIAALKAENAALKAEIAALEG [4H2649-AA] : what is it?
Output line: -0.528

Input line: Reported interaction score for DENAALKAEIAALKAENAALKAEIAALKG [4H1626-AA] : what is it?
Output line: -0.637

Input line: Reported interaction score for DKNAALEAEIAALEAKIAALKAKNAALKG [4H3120-AA] : what is it?
Output line: -0.632
